Measurement Target: mouse TAAR1 (Mus musculus (Mouse), UniProt Q923Y8)
Sequence (Q923Y8 whole entry): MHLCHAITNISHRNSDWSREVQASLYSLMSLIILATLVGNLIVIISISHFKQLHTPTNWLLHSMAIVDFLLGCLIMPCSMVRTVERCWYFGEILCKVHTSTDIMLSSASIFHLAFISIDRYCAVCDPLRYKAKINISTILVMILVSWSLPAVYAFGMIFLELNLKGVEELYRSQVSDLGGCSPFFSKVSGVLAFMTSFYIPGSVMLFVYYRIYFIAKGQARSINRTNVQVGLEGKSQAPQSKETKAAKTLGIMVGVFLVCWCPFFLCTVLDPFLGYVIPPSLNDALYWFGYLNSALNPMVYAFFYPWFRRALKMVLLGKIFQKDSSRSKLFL
Test: Radioligand binding assay on mouse TAAR1
Test Parameters: read-out: Ki (μM) mouse; mouse TAAR1, membranes of HEK-293 cells, radioligand displacement
Where a name gives a salt, the structure may show the parent alone.
Observed Property: Ki

{"Compound": "O=C(Nc1ccc([C@H]2CNCCO2)cc1)c1cnn(-c2cncc(Cl)n2)c1 [Example 33, hydrochloride]", "Result": "0.0032 µM"}

Give the measured Ki of N#Cc1cncc(-n2cc(C(=O)Nc3ccc([C@H]4CNCCO4)cc3)cn2)n1 [Example 47, hydrochloride] .
0.0195 µM

I would be grateful if you could share the reported Ki for O=C(Nc1ccc([C@H]2CNCCO2)cc1)c1cnn(-c2nccnc2Cl)c1 [Example 41, hydrochloride] .
0.0275 µM

Which measured Ki value corresponds to COc1cccc(-n2cc(C(=O)Nc3ccc([C@H]4CNCCO4)cc3)cn2)n1 [Example 18, hydrochloride] ?
0.001 µM

---

Ki values, listed per item
Measurement Target: mouse TAAR1 (Mus musculus (Mouse), UniProt Q923Y8)
Test: Radioligand binding assay on mouse TAAR1
Test Parameters: read-out: Ki (μM) mouse; mouse TAAR1, membranes of HEK-293 cells, radioligand displacement
Counter-ions that a name gives are not always drawn.
Your answer is read as µM, so omit the unit and give the number.

{"Compound": "COc1ccc(-n2cc(C(=O)Nc3ccc([C@H]4CNCCO4)cc3)cn2)cc1 [Example 3, hydrochloride]", "Ki / µM": 0.0025}
{"Compound": "O=C(Nc1ccc([C@H]2CNCCO2)cc1)c1cnn(-c2ccc(C(F)(F)F)cn2)c1 [Example 11, hydrochloride]", "Ki / µM": 0.0023}
{"Compound": "Cc1cncc(-n2cc(C(=O)Nc3ccc([C@H]4CNCCO4)cc3)cn2)n1 [Example 39, hydrochloride]", "Ki / µM": 0.0088}

Report Ki for O=C(Nc1ccc([C@@H]2CNCCO2)cc1)c1cnn(-c2ccc(OC(F)F)cc2)c1 [Example 27, hydrochloride] please.
0.0013

Item under review: N#Cc1cnc(-n2cc(C(=O)Nc3ccc([C@H]4CNCCO4)cc3)cn2)cn1 [Example 42, hydrochloride] . Reported Ki?
0.0199

Suppose we examine the compound O=C(Nc1ccc([C@H]2CNCCO2)cc1)c1cnn(-c2cnc(C(F)(F)F)nc2)c1 [Example 45, hydrochloride] ; what Ki value has been reported?
0.0214

What measured Ki goes with N#Cc1cc(F)ccc1-n1cc(C(=O)Nc2ccc([C@H]3CNCCO3)cc2)cn1 [Example 25, hydrochloride] ?
0.0082

---

Measurement Target: mouse TAAR1 (Mus musculus (Mouse), UniProt Q923Y8)
Test: Radioligand binding assay on mouse TAAR1
Test Parameters: read-out: Ki (μM) mouse; mouse TAAR1, membranes of HEK-293 cells, radioligand displacement
Structures can show the parent of a compound that is named as a salt.
Rule for this label: YES means Ki is less than 0.004 µM; NO means Ki is at least 0.004 µM.

Sample answers from the record:
{"Molecule": "O=C(Nc1ccc([C@H]2CNCCO2)cc1)c1cnn(-c2ccc3c(c2)OC(F)(F)O3)c1 [Example 29, hydrochloride]", "Category": "YES"}
{"Molecule": "N#Cc1ccc(-n2cc(C(=O)Nc3ccc([C@H]4CNCCO4)cc3)cn2)cc1F [Example 24, hydrochloride]", "Category": "NO"}
{"Molecule": "Cc1cnc(-n2cc(C(=O)Nc3ccc([C@H]4CNCCO4)cc3)cn2)cn1 [Example 40, hydrochloride]", "Category": "NO"}
{"Molecule": "Cc1ccnc(-n2cc(C(=O)Nc3ccc([C@H]4CNCCO4)cc3)cn2)n1 [Example 43, hydrochloride]", "Category": "NO"}
{"Molecule": "O=C(Nc1ccc([C@H]2CNCCO2)cc1)c1cnn(-c2ncc(C(F)(F)F)cc2F)c1 [Example 19, hydrochloride]", "Category": "NO"}
{"Molecule": "O=C(Nc1ccc([C@H]2CNCCO2)cc1)c1cnn(-c2cccc(F)c2)c1 [Example 5, hydrochloride]", "Category": "YES"}

Does O=C(Nc1ccc([C@H]2CNCCO2)cc1)c1cnn(-c2cncc(C(F)(F)F)n2)c1 [Example 38, hydrochloride] have Ki strictly under 0.004 µM?
NO

Does this molecule meet the criterion Ki < 0.004 µM? O=C(Nc1ccc([C@H]2CNCCO2)cc1)c1cnn(-c2ccc(OC(F)F)cc2)c1 [Example 21, hydrochloride]
YES

I wonder whether N#Cc1nccnc1-n1cc(C(=O)Nc2ccc([C@H]3CNCCO3)cc2)cn1 [Example 52, hydrochloride] has Ki below 0.004 µM. Can you tell?
NO

Below 0.004 µM on Ki? Entry O=C(Nc1ccc([C@H]2CNCCO2)cc1)c1cnn(-c2ccc(C(F)(F)F)nc2)c1 [Example 51, hydrochloride]
NO

Item O=C(Nc1ccc([C@H]2CNCCO2)cc1)c1cnn(-c2ccc(I)cn2)c1 [Example 10, hydrochloride] : Ki beneath 0.004 µM, strictly?
YES
